# reported self-cleavage; entries follow
B1: LINE1-full (parent)
chain: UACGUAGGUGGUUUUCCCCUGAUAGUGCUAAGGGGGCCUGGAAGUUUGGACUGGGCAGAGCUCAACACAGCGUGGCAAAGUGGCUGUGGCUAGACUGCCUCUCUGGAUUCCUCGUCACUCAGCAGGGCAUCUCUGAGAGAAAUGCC

Variants of: B1
Test: self-cleavage, relative activity (ratio to wild type); higher = more cleavage; in vitro, sequencing; the parent is a self-cleaving ribozyme
quantity: self-cleavage

sequence: UACGUAGGUGGUUUUCCCCUGAUAGUGCUAAGGGGGCCUGGAAGUUUGGGCUGGGCAGAGCUCAACACAGCGUGGCAAAGUGGCUGUGGCUAGACUGCCUCUCUGGAUUCCUCAUCACUCAGCAGGGCAUCUCUGAGAGAAAUGCC [A50G G114A]
recorded measurement: 0.98

sequence: UACGUAGGUGGUUUUCCCCUGGUAGUGCUAAGGGGGCCCGGAAGUUUGGACUGGGCAGAGCUCAACACAGCGUGGCAAAGUGGCUGUGGCUAGACUGCCUCUCUGGAUUCCUCGUCACUCAGCAGGGCAUCUCUGAGAGAAAUGCC [A22G U39C]
recorded measurement: 1.14

sequence: UACGUAGGUGGUUUUCCCCAGAUAGUGCUAAGGGGGCCUGGAAGUUUGGACCGGGCAGAGCUCAACACAGCGUGGCAAAGUGGCUGUGGCUAGACUGCCUCUCUGGAUUCCUCGUCACUCAGCAGGGCAUCUCUGAGAGAAAUGCC [U20A U52C]
recorded measurement: 1.77

sequence: UGCGUAGGUGGUUUUCCCCUGAUAGUGCUAAGGGGGCCUGGAAGUAUGGACUGGGCAGAGCUCAACACAGCGUGGCAAAGUGGCUGUGGCUAGACUGCCUCUCUGGAUUCCUCGUCACUCAGCAGGGCAUCUCUGAGAGAAAUGCC [A2G U46A]
recorded measurement: 0.3

sequence: UAUGUAGGUGGUUUUCCCCUGAUAGUGCUAAGGGGGCCUGGAAGUUUGGACUGGGCAGAGCUCAACACAGCGUGGCAAAGUGGCUGUGGCUAGACUGCCUCUCUGGAUUCCUAGUCACUCAGCAGGGCAUCUCUGAGAGAAAUGCC [C3U C113A]
recorded measurement: 1.15

sequence: UACGUAGGUGGUUUUCCCCUGAUAGUGCUAAGGGGGCCUGGAAGUUUGGACUGGGCAGAGCUCAACACAGCGUGGCAAAGUGGCUGUGGCUAGACUGCCUCUCUGGAUUCCUCGUCACUCAGCAGGGCACCUCUUAGAGAAAUGCC [U130C G135U]
recorded measurement: 0.97

sequence: UACGUAGGUGGUUUUCCCCUGAUAGUGCUAAGGGGGCCUGGAUGUUUGGACUGGGCAGAACUCAACACAGCGUGGCAAAGUGGCUGUGGCUAGACUGCCUCUCUGGAUUCCUCGUCACUCAGCAGGGCAUCUCUGAGAGAAAUGCC [A43U G60A]
recorded measurement: 0.05

sequence: UACGUAAGUGGUUUUCCCCUGAUAGUGCUAAGGGGGCCUGGAAGUUUGGACUGGGCAGAGCUCAACACAGCGUGGCAAAGUGGCUGUGGCUAGACUGCCUCUCAGGAUUCCUCGUCACUCAGCAGGGCAUCUCUGAGAGAAAUGCC [G7A U104A]
recorded measurement: 1.11

sequence: UACGUAGGUGGUUUUCCCCUGAUAGUGCUAAGGGGGUCUGGAAGUUUGGACUGGGCAGAGCUCAACACAGCGUGGCAAAGUGGCUGUGGCUAGACUGCCUCUCUGGGUUCCUCGUCACUCAGCAGGGCAUCUCUGAGAGAAAUGCC [C37U A107G]
recorded measurement: 1.07

sequence: UACGUAGGUGGUUUUCCCCUGAUAGUGCUAAGGGGGCCUGGAAGUCUGGACUGGGCAGAGCUCAACACAGCGUGGCAAAGUGGCUGUGGCUAGACUGCCUCUCUGUAUUCCUCGUCACUCAGCAGGGCAUCUCUGAGAGAAAUGCC [U46C G106U]
recorded measurement: 0.84

sequence: UACGUAGGUGGUUUUCCCCUGAUGGUGCUAAGGGGGCCUGGAAGUUUGGACUGGGCAGAGCUCAACACAGCGUGGCAAAGUGGCUGUGGCUAGACUGCCUCUCUGGAUUCCUCGUCACUCAGCAGGGCAUCUCUGAGAGAGAUGCC [A24G A141G]
recorded measurement: 1.22

sequence: UACGUAGGUGGUUUUCCCCUGAUAGUGCUAAGGGGGCCUGGAAGUUUGGACUGGGCAGAGCUCAACACAGCGUGGCAAAGUGGCUGUGGCCAGACUGCCUCUCUGGAUUCCUCGUCACUCAGCAGGGCAUCUCUAAGAGAAAUGCC [U91C G135A]
recorded measurement: 0.73

sequence: UACGUAGGUGGUUUUCCCCUGAUAGUGCUAAGGGGGCCUGGAAGUUUGGACUGGGCAGAGCUCAUCACAGCGUGGCAGAGUGGCUGUGGCUAGACUGCCUCUCUGGAUUCCUCGUCACUCAGCAGGGCAUCUCUGAGAGAAAUGCC [A65U A78G]
recorded measurement: 0.16

sequence: UACGUAGGUGGUUUUCCCCUGAUAGUGCUAAGGGGGCCUGGAAGUUAGGACUGGGCAGAGCUCAACACAGCGUGGCAAUGUGGCUGUGGCUAGACUGCCUCUCUGGAUUCCUCGUCACUCAGCAGGGCAUCUCUGAGAGAAAUGCC [U47A A79U]
recorded measurement: 1.64

sequence: UACGUAGGUGGUUUUUCCCUGAUAGUGCUAAGGGGGCCUGGAAGUUUGGACUGGGCAGAGCUCAACACAGCGUGGCAAAGUGGCUGUGGCUAGACCGCCUCUCUGGAUUCCUCGUCACUCAGCAGGGCAUCUCUGAGAGAAAUGCC [C16U U96C]
recorded measurement: 0.11

sequence: UACGUAGGUGGUUUUCCCCUGAUAGUGCUAAGGGGGCCUGGAAGUUAGGACUGGGCAGAGCUCAACACAGCGUGGCAAAGUGGCUGUGGCUAGACUGCCUCUCUGGAUUCCUCGUCACUCAGCAGGGCAUCUCUGAGAGAAAUGCC [U47A]
recorded measurement: 1.22

sequence: UACGUAGGUGGUUUUCCCCUGAUAGUGCUAAGGGGGCCUGGAAGUUUGGACUGGGCAGAGCUCAACACAGCGUGGCAAAAUGGCUGUGGCUAGACUGCCUCCCUGGAUUCCUCGUCACUCAGCAGGGCAUCUCUGAGAGAAAUGCC [G80A U102C]
recorded measurement: 1.92

sequence: UACGUAGGUGGGUUUCCCCUGAUAGUGCUAAGGGGGCCUGGAAGUUUGGACUGGGCAGAGCUCAACACAGCGUGGCAAAGUGGCUGUGGCUAGACUGCCUCUCUGGAUUCCUAGUCACUCAGCAGGGCAUCUCUGAGAGAAAUGCC [U12G C113A]
recorded measurement: 1.84

sequence: UACGUAGGGGGUUUUCCCCUGAUAGUGCUAAGGGGGCCUGGAAGUUUGGACUGGGCAGAGCUCAACACAGCGUGGCAAAGUGGCUGUGGCUAGACUGCCUCUCUGGAUUCCUCGUCACUCAGCUGGGCAUCUCUGAGAGAAAUGCC [U9G A124U]
recorded measurement: 1.12

sequence: UACGUAGGUGGUUUUCCCCUGAUAGUGCUAAGGGGGCCUGGAGGUUUGGACUGGGCAGAGCUCAACACAGCGUGGCAAAGUGGCUGUGGCUAGACUGCCUCUCUGGAUUCCUCGUCACUCAGCAGUGCAUCUCUGAGAGAAAUGCC [A43G G126U]
recorded measurement: 1.28

sequence: UACGUAGGUGGUUUUCCCCUGAUAGUGCUAAGGGGGCCUGGAAGUUUGGACUGGGCAGAGCUCAACACAGCGUGGCAAAGUGACUGUGGCUAGACUGCCUCUCUGGAUUCCUCGUCACUCAGCAGGGCACCUCUGAGAGAAAUGCC [G83A U130C]
recorded measurement: 1.13

sequence: UACGUAGGUGGUAUUCCCCUUAUAGUGCUAAGGGGGCCUGGAAGUUUGGACUGGGCAGAGCUCAACACAGCGUGGCAAAGUGGCUGUGGCUAGACUGCCUCUCUGGAUUCCUCGUCACUCAGCAGGGCAUCUCUGAGAGAAAUGCC [U13A G21U]
recorded measurement: 0.47
